# system.name: human orexin-2 receptor (Homo sapiens (Human), UniProt O43614)
# Sequence (O43614 whole entry): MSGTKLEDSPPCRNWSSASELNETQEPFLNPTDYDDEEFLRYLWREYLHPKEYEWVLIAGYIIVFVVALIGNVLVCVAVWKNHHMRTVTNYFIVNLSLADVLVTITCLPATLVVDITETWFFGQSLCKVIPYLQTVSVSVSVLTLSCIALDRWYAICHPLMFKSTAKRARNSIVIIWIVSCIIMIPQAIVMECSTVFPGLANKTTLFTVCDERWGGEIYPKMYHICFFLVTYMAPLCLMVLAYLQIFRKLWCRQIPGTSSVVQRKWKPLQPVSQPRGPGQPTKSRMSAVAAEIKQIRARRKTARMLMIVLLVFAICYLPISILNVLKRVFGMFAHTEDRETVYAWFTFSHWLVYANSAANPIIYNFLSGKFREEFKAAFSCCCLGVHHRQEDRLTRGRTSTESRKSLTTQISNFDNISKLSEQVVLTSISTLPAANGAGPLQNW
# experiment: FLIPR Ca2+ Flux Assay, hOX2R FLIPR
# run.parameters: CHO cells, 70 pM Ala-6,12 human orexin-A agonist
# Method: In a typical experiment the OX1 and OX2 receptor antagonistic activity of the compounds of the present invention was determined in accordance with the following experimental method. […] Within the Fluorescent Imaging Plate Reader (FLIPR, Molecular Devices), test compounds are added to the plate in a volume of 25 μl, incubated for 5 min and finally 25 μl of agonist is added. […]
measurement.type: pIC50
# reply with the number alone; pIC50 is -log10 of concentration in mol/L

Per the records, this compound ( COC(=O)c1c(C#N)ccnc1O[C@@H]1CC[C@@H](C)N(C(=O)c2ccc(F)cc2-c2noc(C)n2)C1 ) has pIC50 equal to 7.52

Per the records, this compound ( COC(=O)c1c(C#N)ccnc1O[C@@H]1CC[C@@H](C)N(C(=O)c2c(F)cccc2-c2noc(C)n2)C1 ) has pIC50 equal to 7.84

Per the records, this compound ( COC(=O)c1c(C#N)ccnc1O[C@@H]1CC[C@@H](C)N(C(=O)c2cccc(F)c2-c2noc(C)n2)C1 ) has pIC50 equal to 7.79

Per the records, this compound ( COC(=O)c1c(C#N)ccnc1O[C@@H]1CC[C@@H](C)N(C(=O)c2cc(F)ccc2-c2noc(C)n2)C1 ) has pIC50 equal to 7.77

Per the records, this compound ( COC(=O)c1c(C#N)ccnc1O[C@@H]1CC[C@@H](C)N(C(=O)c2c(F)cccc2-c2ncccn2)C1 ) has pIC50 equal to 7.48

Per the records, this compound ( COC(=O)c1c(C#N)ccnc1O[C@@H]1CC[C@@H](C)N(C(=O)c2cccc(F)c2-c2ncccn2)C1 ) has pIC50 equal to 7.44

Per the records, this compound ( COC(=O)c1c(C#N)ccnc1O[C@@H]1CC[C@@H](C)N(C(=O)c2c(F)cccc2-n2nccn2)C1 ) has pIC50 equal to 7.62

Per the records, this compound ( COC(=O)c1c(C#N)ccnc1O[C@@H]1CC[C@@H](C)N(C(=O)c2ccccc2-n2nccn2)C1 ) has pIC50 equal to 7.72

Per the records, this compound ( COC(=O)c1c(C#N)ccnc1O[C@@H]1CC[C@@H](C)N(C(=O)c2ccc(OC)nc2-n2nccn2)C1 ) has pIC50 equal to 7.47

Per the records, this compound ( COC(=O)c1c(C#N)ccnc1O[C@@H]1CC[C@@H](C)N(C(=O)c2ccccc2C2CCC2)C1 ) has pIC50 equal to 7.71

Per the records, this compound ( COC(=O)c1c(C#N)ccnc1O[C@@H]1CC[C@@H](C)N(C(=O)c2cc(F)ccc2-c2ncccn2)C1 ) has pIC50 equal to 7.49

Per the records, this compound ( COC(=O)c1c(C#N)ccnc1O[C@@H]1CC[C@@H](C)N(C(=O)c2cccc(F)c2-n2nccn2)C1 ) has pIC50 equal to 7.80

Per the records, this compound ( COC(=O)c1c(C#N)ccnc1O[C@@H]1CC[C@@H](C)N(C(=O)c2cc(F)ccc2-c2nc(C)no2)C1 ) has pIC50 equal to 7.60

Per the records, this compound ( COC(=O)c1c(C#N)ccnc1O[C@@H]1CC[C@@H](C)N(C(=O)c2ccccc2-c2nc(C)no2)C1 ) has pIC50 equal to 7.68

Per the records, this compound ( COC(=O)c1c(C#N)ccnc1O[C@@H]1CC[C@@H](C)N(C(=O)c2ccc(F)cc2-c2nc(C)no2)C1 ) has pIC50 equal to 7.50

---

For each entry below, report its IC50 value.
# system.name: hOX1R (orexin-1 receptor) (Rattus norvegicus, UniProt P56718)
# experiment: FLIPR Ca2+ Flux Assay, hOX1R FLIPR
# run.parameters: CHO cells, 70 pM Ala-6,12 human orexin-A agonist
Quick reminder: number only, in nM, skip the unit.

Per the records, this compound ( COC(=O)c1c(C#N)ccnc1O[C@@H]1CC[C@@H](C)N(C(=O)c2cc(C)ccc2-n2nccn2)C1 ) has IC50 equal to 311

Per the records, this compound ( COC(=O)c1c(C#N)ccnc1O[C@@H]1CC[C@@H](C)N(C(=O)c2ccccc2-n2nccn2)C1 ) has IC50 equal to 749

Per the records, this compound ( COC(=O)c1c(C#N)ccnc1O[C@@H]1CC[C@@H](C)N(C(=O)c2ccccc2-c2nc(C)no2)C1 ) has IC50 equal to 584

Per the records, this compound ( COC(=O)c1c(C#N)ccnc1O[C@@H]1CC[C@@H](C)N(C(=O)c2ccc(F)cc2-n2nccn2)C1 ) has IC50 equal to 1010

Per the records, this compound ( COC(=O)c1c(C#N)ccnc1O[C@@H]1CC[C@@H](C)N(C(=O)c2cc(F)ccc2-n2nccn2)C1 ) has IC50 equal to 971

Per the records, this compound ( COC(=O)c1c(C#N)ccnc1O[C@@H]1CCC(C)N(C(=O)c2ccccc2-c2ncccn2)C1 (some centres unmarked) ) has IC50 equal to 417

Per the records, this compound ( COC(=O)c1c(C#N)ccnc1O[C@@H]1CC[C@@H](C)N(C(=O)c2ccccc2-n2ncnn2)C1 ) has IC50 equal to 1290

Per the records, this compound ( COC(=O)c1c(C#N)ccnc1O[C@@H]1CC[C@@H](C)N(C(=O)c2c(F)cccc2-n2nccn2)C1 ) has IC50 equal to 432

Per the records, this compound ( COC(=O)c1c(C#N)ccnc1O[C@@H]1CC[C@@H](C)N(C(=O)c2cccc(F)c2-c2noc(C)n2)C1 ) has IC50 equal to 956

Per the records, this compound ( COC(=O)c1c(C#N)ccnc1O[C@@H]1CC[C@@H](C)N(C(=O)c2ccc(F)cc2-c2nc(C)no2)C1 ) has IC50 equal to 3080

Per the records, this compound ( COC(=O)c1c(C#N)ccnc1O[C@@H]1CC[C@@H](C)N(C(=O)c2c(C)cccc2-n2nccn2)C1 ) has IC50 equal to 208

Per the records, this compound ( COC(=O)c1c(C#N)ccnc1O[C@@H]1CC[C@@H](C)N(C(=O)c2cc(F)ccc2-c2ncccn2)C1 ) has IC50 equal to 417

Per the records, this compound ( COC(=O)c1c(C#N)ccnc1O[C@@H]1CC[C@@H](C)N(C(=O)c2cccc(F)c2-n2nccn2)C1 ) has IC50 equal to 1020

Per the records, this compound ( COC(=O)c1c(C#N)ccnc1O[C@@H]1CC[C@@H](C)N(C(=O)c2cc(F)ccc2-c2nc(C)no2)C1 ) has IC50 equal to 1470

Per the records, this compound ( COC(=O)c1c(C#N)ccnc1O[C@@H]1CC[C@@H](C)N(C(=O)c2ccccc2-c2noc(C)n2)C1 ) has IC50 equal to 698

Per the records, this compound ( COC(=O)c1c(C#N)ccnc1O[C@@H]1CC[C@@H](C)N(C(=O)c2ccc(F)cc2-c2ncccn2)C1 ) has IC50 equal to 711

Per the records, this compound ( COC(=O)c1c(C#N)ccnc1O[C@@H]1CC[C@@H](C)N(C(=O)c2cc(F)ccc2-c2noc(C)n2)C1 ) has IC50 equal to 1030

---

For each entry below, report its Ki value.
# system.name: UniProtKB O43614
# experiment: radioligand binding assay, hOX2R BIND
# run.parameters: membranes from CHO cells expressing OX2 receptor; read-out: hOX2R BIND hKi
Quick reminder: number only, in nM, skip the unit.

Per the records, this compound ( COC(=O)c1c(C#N)ccnc1O[C@@H]1CC[C@@H](C)N(C(=O)c2cccc(F)c2-c2ncccn2)C1 [Example 21] ) has Ki equal to 1.2

Per the records, this compound ( COC(=O)c1c(C#N)ccnc1O[C@@H]1CC[C@@H](C)N(C(=O)c2cc(F)ccc2-c2nc(C)no2)C1 [Example 8] ) has Ki equal to 0.44

Per the records, this compound ( COC(=O)c1c(C#N)ccnc1O[C@@H]1CC[C@@H](C)N(C(=O)c2c(F)cccc2-n2nccn2)C1 [Example 7] ) has Ki equal to 0.33

---

# system.name: human orexin-2 receptor (Homo sapiens (Human), UniProt O43614)
# experiment: radioligand binding assay, hOX2R BIND
# run.parameters: membranes from CHO cells expressing OX2 receptor; read-out: hOX2R BIND hKi
measurement.type: pKi
# reply with the number alone; pKi is -log10 of concentration in mol/L

Per the records, this compound ( COC(=O)c1c(C#N)ccnc1O[C@@H]1CC[C@@H](C)N(C(=O)c2cc(F)ccc2-n2nccn2)C1 ) has pKi equal to 9.38

Per the records, this compound ( COC(=O)c1c(C#N)ccnc1O[C@@H]1CC[C@@H](C)N(C(=O)c2ccc(C)cc2-n2nccn2)C1 ) has pKi equal to 9.24

Per the records, this compound ( COC(=O)c1c(C#N)ccnc1O[C@@H]1CC[C@@H](C)N(C(=O)c2cc(C)ccc2-n2nccn2)C1 ) has pKi equal to 9.32

Per the records, this compound ( COC(=O)c1c(C#N)ccnc1O[C@@H]1CC[C@@H](C)N(C(=O)c2c(C)cccc2-n2nccn2)C1 ) has pKi equal to 9.59

Per the records, this compound ( COC(=O)c1c(C#N)ccnc1O[C@@H]1CC[C@@H](C)N(C(=O)c2c(F)cccc2-c2nc(C)no2)C1 ) has pKi equal to 8.96

Per the records, this compound ( COC(=O)c1c(C#N)ccnc1O[C@@H]1CC[C@@H](C)N(C(=O)c2ccccc2-n2nccn2)C1 ) has pKi equal to 9.34
